Catalogue of compounds with associated pEC50
tested on: human mGlu2 receptor (Homo sapiens)
procedure text: FLIPR intracellular Ca2+ assay, potentiation of glutamate response in HEK293 clone expressing mGlu2 receptor, rGLAST and Galpha16
measurement parameters: 1 μM glutamate added ten minutes after test compound, HEK293 cells with human mGlu2, rGLAST, Galpha16, read-out: EC50 values of potentiation effect to glutamate
Text: The compounds of the present invention can be tested e.g. by evaluating intracellular Ca^2+ concentrations in cells permanently expressing human mGlu receptor, the rat glutamate transporter rGLAST and the Galpha16 subunit of the G-protein complex under standard conditions in a fluorometric imaging plate reader (FLIPR, Molecular Devices, Union City, Calif. 94587, USA) by measuring the response of the cells to a test compound in the absence of presence of glutamate. […]
pEC50: −log10 of the molar value.

Ask: Name the recorded pEC50 of the item CCCOc1ncccc1CNc1ccc(C(=O)CCC)cc1 in your answer.
Reply: 5.00 to 6.00

---

Catalogue of compounds with associated EC50
tested on: human mGlu2 receptor (Homo sapiens, UniProt Q14416)
Sequence (Q14416 19-872): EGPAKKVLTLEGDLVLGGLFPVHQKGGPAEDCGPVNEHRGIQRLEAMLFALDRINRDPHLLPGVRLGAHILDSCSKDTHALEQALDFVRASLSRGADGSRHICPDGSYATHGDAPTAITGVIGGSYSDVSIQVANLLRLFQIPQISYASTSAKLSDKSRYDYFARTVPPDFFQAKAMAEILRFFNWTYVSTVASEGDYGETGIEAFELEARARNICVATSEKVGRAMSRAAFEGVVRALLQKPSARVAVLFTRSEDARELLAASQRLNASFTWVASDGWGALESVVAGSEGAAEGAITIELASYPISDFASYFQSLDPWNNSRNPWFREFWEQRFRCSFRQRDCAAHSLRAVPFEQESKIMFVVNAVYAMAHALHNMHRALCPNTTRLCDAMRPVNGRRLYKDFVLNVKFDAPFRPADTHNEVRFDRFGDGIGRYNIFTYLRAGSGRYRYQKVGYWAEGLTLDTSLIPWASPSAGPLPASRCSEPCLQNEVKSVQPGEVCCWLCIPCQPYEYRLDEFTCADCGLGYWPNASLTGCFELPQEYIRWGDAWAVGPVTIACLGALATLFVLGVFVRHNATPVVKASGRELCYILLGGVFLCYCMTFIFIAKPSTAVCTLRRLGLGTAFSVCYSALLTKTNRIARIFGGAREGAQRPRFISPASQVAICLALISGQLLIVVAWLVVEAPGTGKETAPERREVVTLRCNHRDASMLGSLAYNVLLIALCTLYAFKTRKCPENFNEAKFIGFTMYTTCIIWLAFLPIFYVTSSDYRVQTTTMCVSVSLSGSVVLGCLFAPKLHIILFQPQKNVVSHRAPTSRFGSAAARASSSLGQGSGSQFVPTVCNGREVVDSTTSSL
procedure text: FLIPR intracellular Ca2+ assay, potentiation of glutamate response in HEK293 clone expressing mGlu2 receptor, rGLAST and Galpha16
measurement parameters: 1 μM glutamate added ten minutes after test compound, HEK293 cells with human mGlu2, rGLAST, Galpha16, read-out: EC50 values of potentiation effect to glutamate

Known EC50 results, listed for orientation:
compound | EC50
CCCC(=O)c1ccc(NCc2n[nH]cc2Br)cc1 | 1000 to 10000 nM
CCCN1Cc2cc(NCc3c[nH]nc3-c3cccc(Cl)c3)ccc2C1=O | < 1000 nM
CCCC(=O)c1ccc(NCc2cnc(-c3ccccc3OC)s2)cc1 | 1000 to 10000 nM
CCCC(=O)c1ccc(NCc2c[nH]nc2-c2ccc(F)cc2)cc1 | < 1000 nM
CCCC(=O)c1ccc(NCc2cn(-c3ccccc3)nc2-c2ccncc2)cc1 | 1000 to 10000 nM

Ask: Tell me its EC50 on human mGlu2 receptor (Homo sapiens, UniProt Q14416): O=C1c2ccc(OCc3c[nH]nc3-c3ccccc3)cc2CN1CC(F)F
Reply: < 1000 nM

Ask: Tell me its EC50 on human mGlu2 receptor (Homo sapiens, UniProt Q14416): CCCCN1Cc2cc(OCc3c[nH]nc3-c3ccc(Cl)cc3)ccc2C1=O
Reply: < 1000 nM

Ask: Tell me its EC50 on human mGlu2 receptor (Homo sapiens, UniProt Q14416): CC(C)(C)c1n[nH]cc1CNc1ccc(OC(F)(F)Cl)cc1
Reply: 1000 to 10000 nM

Ask: Tell me its EC50 on human mGlu2 receptor (Homo sapiens, UniProt Q14416): CCCC(=O)c1ccc(NCc2cnn3ccccc23)cc1
Reply: 1000 to 10000 nM

Ask: Tell me its EC50 on human mGlu2 receptor (Homo sapiens, UniProt Q14416): CCCC(=O)c1ccc(NCc2ccc(Cl)nc2Cl)cc1
Reply: 1000 to 10000 nM

Ask: Tell me its EC50 on human mGlu2 receptor (Homo sapiens, UniProt Q14416): CCCC(=O)c1ccc(NCc2nn(C)c3ccccc23)cc1
Reply: 1000 to 10000 nM

Ask: Tell me its EC50 on human mGlu2 receptor (Homo sapiens, UniProt Q14416): CCCC(=O)c1ccc(NCc2ccc(CC)s2)cc1
Reply: 1000 to 10000 nM

Ask: Tell me its EC50 on human mGlu2 receptor (Homo sapiens, UniProt Q14416): CCCC(=O)c1ccc(NCc2c[nH]nc2-c2cc(F)cc(F)c2)cc1
Reply: < 1000 nM

Ask: Tell me its EC50 on human mGlu2 receptor (Homo sapiens, UniProt Q14416): O=C(c1ccccc1)c1ccc(NCc2c[nH]nc2-c2ccc(C(F)(F)F)cc2)cc1
Reply: 1000 to 10000 nM

Ask: Tell me its EC50 on human mGlu2 receptor (Homo sapiens, UniProt Q14416): CCCC(=O)c1ccc(NCc2c[nH]nc2-c2cccc(F)c2)cc1
Reply: < 1000 nM

Ask: Tell me its EC50 on human mGlu2 receptor (Homo sapiens, UniProt Q14416): O=C1CCc2cc(NCc3c[nH]nc3-c3ccc(C(F)(F)F)cc3)ccc21
Reply: 1000 to 10000 nM

Ask: Tell me its EC50 on human mGlu2 receptor (Homo sapiens, UniProt Q14416): CCCC(=O)c1ccc(NCc2n[nH]cc2-c2ccc(CC)cc2)cc1
Reply: < 1000 nM

Ask: Tell me its EC50 on human mGlu2 receptor (Homo sapiens, UniProt Q14416): CCCC(=O)c1ccc(NCc2ccncc2-c2ccccc2)cc1
Reply: 1000 to 10000 nM

Ask: Tell me its EC50 on human mGlu2 receptor (Homo sapiens, UniProt Q14416): CN(C)C(=O)c1ccc(NCc2c[nH]nc2-c2cccc(C(F)(F)F)c2)cc1
Reply: 1000 to 10000 nM
